Give measured IC50 for each item. Keep answers brief.
Target: SMYD2 (Homo sapiens)
Sequence (Q9NRG4 whole entry): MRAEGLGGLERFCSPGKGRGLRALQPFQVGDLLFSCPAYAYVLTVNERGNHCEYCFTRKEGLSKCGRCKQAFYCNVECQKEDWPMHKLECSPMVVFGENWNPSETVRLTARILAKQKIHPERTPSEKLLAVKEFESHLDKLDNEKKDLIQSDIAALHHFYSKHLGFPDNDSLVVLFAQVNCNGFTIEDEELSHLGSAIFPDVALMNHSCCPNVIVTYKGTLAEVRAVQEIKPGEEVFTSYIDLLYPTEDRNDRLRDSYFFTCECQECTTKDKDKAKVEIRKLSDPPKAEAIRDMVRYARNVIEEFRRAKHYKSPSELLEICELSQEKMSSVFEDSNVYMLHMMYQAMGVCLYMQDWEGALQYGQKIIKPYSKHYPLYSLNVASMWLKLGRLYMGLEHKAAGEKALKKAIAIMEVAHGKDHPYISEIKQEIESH
Test: In Cell Western (ICW) cell-based assay for detection of SMYD2 methylation activity
Set-up: expressed in transfected cells; host or cells: KYSE-150 (human esophageal carcinoma, DSMZ ACC 375)
Details: SMYD2 overexpressing KYSE-150 cells, 72 h treatment, p53K370me1 signal normalized to DRAQ5; read-out: IC50 [mol/l] (ICW assay)
Respond with a number, then the unit of measure.

The cases that follow already have their IC50 on record.
CCN(C(=O)[C@H]1C[C@@H](F)CN1)C1CN(/C(=N\C#N)Nc2cccc(OC(F)F)c2)N=C1c1ccc(Cl)c(C)c1 (single isomer, unassigned) [Example 38.1]; 2.55 nM
CCCN(C(=O)[C@H]1CCCN1)C1CN(/C(=N\C#N)Nc2cccc(OC(F)F)c2)N=C1c1ccc(Cl)c(C)c1 (mixture of isomers); 206 nM
CCN(C(=O)[C@H]1CCCN1)C1CN(/C(=N\C#N)Nc2cccc(OC(F)F)c2F)N=C1c1ccc(Cl)c(Cl)c1 (single isomer, unassigned); 20.3 nM
CCN(C(=O)[C@H]1CCCN1)C1CN(/C(=N\C#N)Nc2ccc(F)c(OC(F)(F)F)c2)N=C1c1ccc(Cl)c(Cl)c1 (single isomer, unassigned); 96.5 nM
CCN(C(=O)[C@H]1CCCN1)C1CN(/C(=N\C#N)Nc2cccc(OC(F)(F)F)c2F)N=C1c1ccc(Cl)c(Cl)c1 (single isomer, unassigned) [Example 21.2]; 228 nM
CCN(C(=O)[C@H]1C[C@@H](O)CN1)C1CN(/C(=N\C#N)Nc2cccc(OC(F)F)c2)N=C1c1ccc(Cl)c(Cl)c1 (single isomer, unassigned); 63.4 nM
CCN(C(=O)[C@H]1CCN1)C1CN(/C(=N\C#N)Nc2cccc(OC(F)F)c2)N=C1c1ccc(Cl)c(C)c1 (single isomer, unassigned) [Example 36.1]; 14.8 nM
CCN(C(=O)[C@H]1CCCN1)C1CN(/C(=N\C#N)Nc2cc(OC)cc(C(F)(F)F)c2)N=C1c1ccc(Cl)c(Cl)c1 (mixture of isomers); 77 nM
CCN(C(=O)[C@H]1CCCN1)C1CN(/C(=N\C#N)Nc2cccc(OC(F)F)c2)N=C1c1ccc(Cl)c(Cl)c1 (mixture of isomers) [Example 1]; 161 nM
CCN(C(=O)[C@H]1C[C@@H](F)CN1)C1CN(/C(=N\C#N)Nc2cccc(OC(F)F)c2)N=C1c1ccc(Cl)c(C)c1 (mixture of isomers) [Example 38]; 18.8 nM

I need IC50 for every entry listed below, if you could help.
1. CCN(C(=O)c1cccc(=O)[nH]1)C1CN(/C(=N\C#N)Nc2cccc(OC(F)(F)F)c2)N=C1c1ccc(Cl)c(Cl)c1 (racemic)
2. CCN(C(=O)[C@H]1CCN1)C1CN(/C(=N\C#N)Nc2cccc(OC(F)F)c2)N=C1c1ccc(Cl)c(Cl)c1 (mixture of isomers)
3. C[C@]1(C(=O)NC2CN(/C(=N\C#N)Nc3cccc(OC(F)F)c3)N=C2c2ccc(Cl)c(Cl)c2)CCCN1 (mixture of isomers)
4. CCN(C(=O)[C@H]1CCN1)C1CN(/C(=N\C#N)Nc2cccc(OC(F)F)c2)N=C1c1ccc(Cl)c(C)c1 (mixture of isomers) [Example 36]
5. CCN(C(=O)[C@H]1CCCN1)C1CN(/C(=N\C#N)Nc2cccc(OC(F)(F)F)c2F)N=C1c1ccc(Cl)c(Cl)c1 (single isomer, unassigned) [Example 21.1]
6. CCN(C(=O)[C@H]1CCCN1)C1CN(/C(=N\C#N)Nc2cc(OC)ccc2Cl)N=C1c1ccc(Cl)c(Cl)c1 (mixture of isomers)

-- reply
764 nM
44.5 nM
104 nM
3.87 nM
16.8 nM
268 nM

I need IC50 for every entry listed below, if you could help.
1. CCN(C(=O)c1cccc(=O)[nH]1)C1CN(/C(=N\C#N)Nc2cccc(OC(F)F)c2)N=C1c1ccc(Cl)c(Cl)c1 (racemic)
2. N#C/N=C(/Nc1cccc(OC(F)F)c1)N1CC(NC(=O)[C@@H]2CCC[C@@H]2N)C(c2ccc(Cl)c(Cl)c2)=N1 (relative stereo)
3. CN(C(=O)[C@H]1C[C@@H](O)CN1)C1CN(/C(=N\C#N)Nc2cccc(OC(F)F)c2)N=C1c1ccc(Cl)c(Cl)c1 (mixture of isomers)

-- reply
720 nM
571 nM
313 nM

-- ask Form field: reported IC50 of CCN(C(=O)[C@H]1CCCN1)C1CN(/C(=N\C#N)Nc2cccc(OC(F)F)c2)N=C1c1ccc(Cl)c(Cl)c1 (single isomer, unassigned) [Example 1.1]
-- reply 2.6 nM
